- Experiment Notes: Aqueous solubility of the compound at pH 6.8 by HPLC analysis
- Type: physicochemical
Observation Type: solubility (µg/mL)

(a) Cc1nn(-c2cccc3cc(Cc4cccc(C(F)(F)F)c4)sc23)c(C)c1C(=O)NCCO
(b) COCCNC(=O)c1c(C)nn(-c2cccc3cc(Cc4cccc(C(F)(F)F)c4)sc23)c1C
(c) Cc1nn(-c2cccc3cc(Cc4cccc(C(F)(F)F)c4)sc23)c(CO)c1C(=O)NCCO
(d) COCCNC(=O)c1cnn(-c2cccc3cc(Cc4cccc(C(F)(F)F)c4)sc23)c1C
Please rank everything listed above by solubility, with the minimum value first. Output spec: a listing of the labels in the requested order.
d, b, a, c
(d: 1.3 µg/mL, b: 2.9 µg/mL, a: 12 µg/mL, c: 21 µg/mL)
